meta.source: paper PMC9400670

increase in FP, PG by entry:
Test system: PG lipid vesicles
Test: Synthetic phospholipid vesicle membrane binding assay (fluorescence polarisation), PG vesicles
Settings: lipid vesicles added to SSA (0.15 mM); n = 3; error = standard error; SSA alone set to 100 mP
Observable: increase in FP, PG (mP)

>>> print(df.to_string())
                           structure_smiles  unit_string  quantitative_result
0  Cc1ccc2nc(-c3ccc(NC(=S)NCS(=O)(=O)O)cc3)sc2c1           mP                  126
1  Cc1ccc2nc(-c3ccc(NC(=O)NCC(=O)O)cc3)sc2c1           mP                  209
2  Cc1ccc2nc(-c3ccc(NC(=O)NCCCS(=O)(=O)O)cc3)sc2c1           mP                   29
3  O=C(NCS(=O)(=O)O)Nc1ccccc1-c1nc2ccccc2s1           mP                   43
4  Cc1ccc2nc(-c3ccc(NC(=O)NCCC(=O)O)cc3)sc2c1           mP                   47
5  O=C(NCS(=O)(=O)O)Nc1ccc(-c2nc3ccccc3s2)cc1           mP                   29
6  Cc1ccc2nc(-c3ccc(NC(=O)NCS(=O)(=O)O)cc3)sc2c1           mP                   40
